- Method Description: Cytotoxicity against human Raji cells assessed as cell viability at 10 molar ratio after 48 hrs by trypan blue staining method
- Format: cell-based
- Recorded Conditions: read-out: Activity
Value Type: viability at 48 h, 10 molar ratio

{"columns": ["Structure Smiles", "viability at 48 h, 10 molar ratio"],
 "data": [
  ["C=C(C)[C@@H]1CC[C@]2(C(=O)O)CC[C@]3(C)[C@H](CC[C@@H]4[C@@]5(C)CC[C@H](OC(=O)C=C(C)C)C(C)(C)[C@@H]5CC[C@]43C)[C@@H]12", "> 80%"]
]}

Give the measured viability at 48 h, 10 molar ratio of C=C(C)[C@@H]1CC[C@]2(C(=O)O)CC[C@]3(C)[C@H](CC[C@@H]4[C@@]5(C)CC[C@H](OC(=O)CC/C=C\C/C=C\C/C=C\C/C=C\C/C=C\C/C=C\CC)C(C)(C)[C@@H]5CC[C@]43C)[C@@H]12 .
> 80%

Please look up its viability at 48 h, 10 molar ratio: C=C(C)[C@@H]1CC[C@]2(C(=O)O)CC[C@]3(C)[C@H](CC[C@@H]4[C@@]5(C)CC[C@H](OC(=O)C[C@H](C)CO)C(C)(C)[C@@H]5CC[C@]43C)[C@@H]12
> 80%
